Tested on: Bacillus subtilis
Test: cleaved RNA product abundance (RNA/gDNA barcode ratio) relative to median wild-type variant (ratio to wild type); higher = more accumulation of the downstream cleavage product
Conditions: experiment (reporter, strain, medium): exp 8a: truncated aprE reporter, strain BJT201 with 2% xylose (RNase J1 expressed); cleavage site: glnRA (positions -5 to +31 mutated)
OBSERVABLE: cleaved RNA product abundance
Keep the answer to the number alone.

Inquiry: For the sequence CGACATGTCCCGCTTCTTTCATTAATCCGTTAGCAACTGTATTGCTATATACATTTACCTTTTAAGAGGAGGAAT , report cleaved RNA product abundance.
Reply text: 0.943

Inquiry: Given the sequence CGACATGTCCCGCTTCTTTCATTAATCCGTTAGCAATTGTTTTGCTATATACAATTACCTTTTAAGAGGAGGAAT , write its reported cleaved RNA product abundance.
Reply text: 1.24

Inquiry: Quickly give me recorded cleaved RNA product abundance for CGACATGTCCCGCTTCTTTCATTAATCCGTTAGCAACTGTTTTGCTATATACATTTACATTTTAAGAGGAGGAAT
Reply text: 1.39

Inquiry: Identify measured cleaved RNA product abundance corresponding to CGACATGTCCCGCTTCTTTCATTATTCCGTTAGAAACTGTTTTGCTATATACATTTACCTTTTAAGAGGAGGAAT
Reply text: 0.309

Inquiry: Consider the sequence CGACATGTCCCGCTTCTTTCATTAATCTGTTAGCAACTGTTTTGCTATATACATTTATCTTTTAAGAGGAGGAAT and give its recorded cleaved RNA product abundance.
Reply text: 0.969

Inquiry: Give reported cleaved RNA product abundance value for CGACATGTCCCGCTTCTTTCATTATTGCGTTAGCAACTGTTTTGCTATATACATTTACCTTTTAAGAGGAGGAAT
Reply text: 1.54

Inquiry: In one line, give reported cleaved RNA product abundance of the entry CGACATGTCCCGCTTCTTTCATTAATTCGTTAGCAATTGTTTTGCTATATACATTTACCTTTTAAGAGGAGGAAT .
Reply text: 1.67

Inquiry: Check the records and state cleaved RNA product abundance for CGACATGTCCCGCTTCTTTCATTAATCCGTTAGCAACTGTTTTGCTATATACATATACCATTTAAGAGGAGGAAT
Reply text: 0.971

Inquiry: Kindly indicate its recorded cleaved RNA product abundance. Item: CGACATGTCCCGCTTCTTTCATTAATCCGTTCCCAACTGTTTTGCTATATACATTTACCTTTTAAGAGGAGGAAT
Reply text: 0.392

Inquiry: Let me know recorded cleaved RNA product abundance for CGACATGTCCCGCTTCTTTCATTACTCCGTTAGCAACTGCTTTGCTATATACATTTACCTTTTAAGAGGAGGAAT , thanks.
Reply text: 0.597

Inquiry: // fetch cleaved RNA product abundance given entry CGACATGTCCCGCTTCTTTCATTAATCCCTTAGCAACTGTTTTGCTATATACATTTAACTTTTAAGAGGAGGAAT
Reply text: 0.237

Inquiry: Give recorded cleaved RNA product abundance. CGACATGTCCCGCTTCTTTCATTATTCCGTTAACAACTGTTTTGCTATATTCATTTACCTTTTAAGAGGAGGAAT
Reply text: 0.155

Inquiry: Identify measured cleaved RNA product abundance associated with CGACATGTCCCGCTTCTTTCATTAATCCGTTACCAACTGTTTTGCTATATACATTTACATTTTAAGAGGAGGAAT
Reply text: 0.209

Inquiry: Look up and report measured cleaved RNA product abundance for this entry: CGACATGTCCCGCTTCTTTCATTAATCCGTTAGAAACTGTTTTGCTATTTACATTTACCTTTTAAGAGGAGGAAT
Reply text: 0.127

Inquiry: State its cleaved RNA product abundance: CGACATGTCCCGCTTCTTTCATTAATCCGTTAGCAAGTGTTTTGCTTTATACATTTACCTTTTAAGAGGAGGAAT
Reply text: 0.474

Inquiry: Let me know recorded cleaved RNA product abundance for CGACATGTCCCGCTTCTTTCATTAAACCGTAAGCAACTGTTTTGCTATATACATTTACCTTTTAAGAGGAGGAAT , thanks.
Reply text: 0.203

Inquiry: Fill in cleaved RNA product abundance for record CGACATGTCCCGCTTCTTTCATTAATCCGTTAGCAACTGTTTTGCTTTATAGATTTACCTTTTAAGAGGAGGAAT
Reply text: 0.649

Inquiry: Using known records, supply cleaved RNA product abundance for CGACATGTCCCGCTTCTTTCATTAATCCGTTAGCAACTGTTTTGCTAAATACATTTATCTTTTAAGAGGAGGAAT
Reply text: 0.814

Inquiry: Return reported cleaved RNA product abundance. Input sequence: CGACATGTCCCGCTTCTTTCATTATTCCGTTAGCAACTCTTTTGCTATATACATTTACCTTTTAAGAGGAGGAAT
Reply text: 2.3

Inquiry: Give the value of cleaved RNA product abundance reported for the following: CGACATGTCCCGCTTCTTTCATTAATCCGTTAGCAAATGTTTTGCTTTATACATTTACCTTTTAAGAGGAGGAAT
Reply text: 0.298

Inquiry: Read off the recorded cleaved RNA product abundance for CGACATGTCCCGCTTCTTTCATTAATCCCTTAGCAACTATTTTGCTATATACATTTACCTTTTAAGAGGAGGAAT
Reply text: 0.323

src = the supplement of paper PMC11780869
